Assign hepatocyte CLint to each entry below.
Experiment: Clearance in rat hepatocytes assessed per million cells by HPLC/atmospheric pressure chemical ionization/MS analysis
Type: ADME, cell-based, Hepatocyte
Conditions: read-out: CLH

Illustrative cases are given below, each with its answer.
> print(dat)
                            smiles.notation   measured.metric               observed
1  NCCS(=O)(=O)CC[C@@H]1OCC[C@@]2(S(=O)(=O)c3ccc(Cl)cc3)c3c(F)ccc(F)c3OC[C@@H]12  hepatocyte CLint  12.1 µL/min/1e6 cells
2  CN(C)CCS(=O)(=O)CC[C@@H]1OCC[C@@]2(S(=O)(=O)c3ccc(Cl)cc3)c3c(F)ccc(F)c3OC[C@@H]12  hepatocyte CLint  66.7 µL/min/1e6 cells
3  O=S(=O)(CC[C@@H]1OCC[C@@]2(S(=O)(=O)c3ccc(Cl)cc3)c3c(F)ccc(F)c3OC[C@@H]12)CC1=NCCN1  hepatocyte CLint  25.9 µL/min/1e6 cells
4  O=S(=O)(CC[C@@H]1OCC[C@@]2(S(=O)(=O)c3ccc(Cl)cc3)c3c(F)ccc(F)c3OC[C@@H]12)CCN1CCNCC1  hepatocyte CLint   6.1 µL/min/1e6 cells
5  O=S(=O)(CC[C@@H]1OCC[C@@]2(S(=O)(=O)c3ccc(Cl)cc3)c3c(F)ccc(F)c3OC[C@@H]12)C[C@@H]1CCCN1  hepatocyte CLint  15.2 µL/min/1e6 cells
6  CNC(C)(C)CCS(=O)(=O)CC[C@@H]1OCC[C@@]2(S(=O)(=O)c3ccc(Cl)cc3)c3c(F)ccc(F)c3OC[C@@H]12  hepatocyte CLint  25.8 µL/min/1e6 cells

I would be grateful if you could share the reported hepatocyte CLint for "O=S(=O)(CC[C@@H]1OCC[C@@]2(S(=O)(=O)c3ccc(Cl)cc3)c3c(F)ccc(F)c3OC[C@@H]12)C[C@H]1CCCN1" .
12.8 µL/min/1e6 cells

---

Assay: Inhibition of gamma-secretase in HEK293 cell membranes expressing human APP Swedish/London double mutant assessed as reduction in amyloid beta 40 formation after 1 hr by electrochemiluminescence based immunoassay
I'd appreciate it if you marked entries label 1 when IC50 is lower than 0.8 nM and label 0 when it is not.

> print(dat)
                            smiles.notation  label.class
1  CC(C)NCCS(=O)(=O)CC[C@@H]1OCC[C@@]2(S(=O)(=O)c3ccc(Cl)cc3)c3c(F)ccc(F)c3OC[C@@H]12      label 1
2  O=S(=O)(CC[C@@H]1OCC[C@@]2(S(=O)(=O)c3ccc(Cl)cc3)c3c(F)ccc(F)c3OC[C@@H]12)CCN1CCOCC1      label 0
3  CNCCS(=O)(=O)CC[C@@H]1OCC[C@@]2(S(=O)(=O)c3ccc(Cl)cc3)c3c(F)ccc(F)c3OC[C@@H]12      label 0
4  O=S(=O)(CC[C@@H]1OCC[C@@]2(S(=O)(=O)c3ccc(Cl)cc3)c3c(F)ccc(F)c3OC[C@@H]12)CCN1CC[C@@H](O)C1      label 1
5  CS(=O)(=O)CC[C@@H]1OCC[C@@]2(S(=O)(=O)c3ccc(Cl)cc3)c3c(F)ccc(F)c3OC[C@@H]12      label 0

# ---- query molecule ----
Take the molecule "CNC(C)(C)CCS(=O)(=O)CC[C@@H]1OCC[C@@]2(S(=O)(=O)c3ccc(Cl)cc3)c3c(F)ccc(F)c3OC[C@@H]12" and say whether its IC50 is less than 0.8 nM.
label 0
